Data provenance is patent US20130053541A1.

Kd by entry:
# testedSystem: T1, native human ESRRG protein (Estrogen-receptor related receptor gamma) (human, UniProt P62508 229-458, limits assumed)
# T1 construct: the screened protein is called 'native human ESRRG protein'; also called ESSRG; ERRγ
# T1 sequence (looked up): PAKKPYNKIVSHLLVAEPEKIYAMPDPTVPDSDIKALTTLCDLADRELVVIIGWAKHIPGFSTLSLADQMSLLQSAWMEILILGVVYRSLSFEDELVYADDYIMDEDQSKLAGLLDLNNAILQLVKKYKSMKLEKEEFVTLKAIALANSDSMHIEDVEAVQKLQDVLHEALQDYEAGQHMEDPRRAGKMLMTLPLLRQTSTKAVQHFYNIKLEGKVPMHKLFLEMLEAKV
# assayInfo: custom peptide microarray density chip
Where no end group is shown, it is not given here.
endpointLabel: Kd (nM)

binder | valueUnit | value
Ac-FWKGHFDF | nM | 9.16
Ac-ANNIRLLH | nM | 18.9
Ac-LLHSSKSQ | nM | 28.3
Ac-NIKLFANN | nM | 24.7
Ac-IKQDHNNS | nM | 15.7
Ac-IFSEIRVY | nM | 16.1
Ac-LLHKSKSQ | nM | 28.5
Ac-NSLLKHLL | nM | 20.7
Ac-ANNLRLLH | nM | 28.9
Ac-AIRLHLMG | nM | 22.4
Ac-AANMFLLL | nM | 29
Ac-AIRGALMG | nM | 27.4
Ac-AIRLFLMG | nM | 13.8
Ac-NIKVNANN | nM | 17
Ac-NNSWRLHL | nM | 29.4
Ac-NSLKKHLL | nM | 18.3
Ac-IFSYVRVY | nM | 15.4
Ac-ANNSRLLH | nM | 28.9
Ac-FYNMYLLN | nM | 27.4
